target.under.test: human ENPP1 (Homo sapiens)
Construct: made in house
Sequence (P22413 1-925): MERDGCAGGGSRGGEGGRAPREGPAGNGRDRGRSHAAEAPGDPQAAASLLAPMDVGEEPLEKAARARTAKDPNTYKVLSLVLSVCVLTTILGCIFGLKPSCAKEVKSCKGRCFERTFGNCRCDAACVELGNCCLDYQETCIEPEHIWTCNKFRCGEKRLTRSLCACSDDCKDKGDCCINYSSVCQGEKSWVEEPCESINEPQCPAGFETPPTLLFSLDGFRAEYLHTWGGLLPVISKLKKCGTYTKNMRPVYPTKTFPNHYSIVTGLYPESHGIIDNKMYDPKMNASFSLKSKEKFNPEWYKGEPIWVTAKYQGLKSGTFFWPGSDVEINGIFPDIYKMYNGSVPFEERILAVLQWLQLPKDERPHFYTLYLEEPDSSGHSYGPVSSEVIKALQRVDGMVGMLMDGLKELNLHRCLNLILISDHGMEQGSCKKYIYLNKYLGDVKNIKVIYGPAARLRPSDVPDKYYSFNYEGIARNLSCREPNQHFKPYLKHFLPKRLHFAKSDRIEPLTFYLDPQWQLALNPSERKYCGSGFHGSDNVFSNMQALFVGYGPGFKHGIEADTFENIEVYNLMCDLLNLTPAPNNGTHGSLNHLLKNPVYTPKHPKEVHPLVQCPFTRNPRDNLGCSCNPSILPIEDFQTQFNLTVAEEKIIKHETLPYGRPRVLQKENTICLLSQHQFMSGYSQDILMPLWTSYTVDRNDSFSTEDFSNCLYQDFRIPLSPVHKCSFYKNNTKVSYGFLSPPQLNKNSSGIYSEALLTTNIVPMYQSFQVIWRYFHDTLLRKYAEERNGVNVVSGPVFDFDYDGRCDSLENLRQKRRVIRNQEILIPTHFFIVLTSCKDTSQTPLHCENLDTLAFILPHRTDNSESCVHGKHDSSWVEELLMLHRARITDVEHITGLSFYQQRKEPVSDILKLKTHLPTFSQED
experimental.protocol: ENPP1 assay with ATP substrate (Transcreener AMP2/GMP2 TR-FRET)
Assay type: biochemical
test.context: 1 hour at room temperature
Record form. Attribute: IC50. Fill in for each entry.

-- ask Item under review: Cc1csc2c(N3CCC(NCCCc4cccc(Cl)c4)CC3)ncnc12 [Example 3.19] . Reported IC50?
-- reply 0.1 to 1 µM

-- ask // returns reported IC50 for input Cn1ncc2c(NCc3ccc(S(N)(=O)=O)cc3)cc(N3CCOCC3)nc21 [Example 2.82]
-- reply 1 to 20 µM

-- ask Any idea what IC50 was measured for Cc1cc(S(N)(=O)=O)ccc1CNc1nc(-c2ccccn2)nc2scc(-c3ccccc3)c12 [Example 1.15] ?
-- reply 0.1 to 1 µM
